- Target entity: wild-type human melanocortin 4 receptor (WT-hMC4R) (Homo sapiens)
- Construct: cDNA from UMR cDNA resource center
- Sequence (P32245 whole entry): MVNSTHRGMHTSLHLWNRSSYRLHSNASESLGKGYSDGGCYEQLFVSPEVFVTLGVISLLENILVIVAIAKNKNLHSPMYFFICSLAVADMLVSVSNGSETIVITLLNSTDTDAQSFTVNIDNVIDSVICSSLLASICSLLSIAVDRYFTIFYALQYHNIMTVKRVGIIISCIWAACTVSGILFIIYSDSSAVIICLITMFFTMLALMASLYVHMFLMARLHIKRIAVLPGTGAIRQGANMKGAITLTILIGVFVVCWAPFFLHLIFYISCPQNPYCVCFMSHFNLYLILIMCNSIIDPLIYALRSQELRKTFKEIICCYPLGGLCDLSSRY
- Assay method text: Cyclic AMP assay (HTRF), antagonist competition against NDP-α-MSH
- Experimental context: HEK293T cells expressing double-tagged WT-hMC4R; cAMP accumulation; 1 hour compound then 4 nM NDP-α-MSH 30 min
Listed below: IC50 values for each entry.

Example entries and their recorded answers appear below.
CC(C)CCN(CCC(C)C)C(=O)c1ccn2nc(C(C)(C)C)c(CCCN3CCCCC3)c2c1 = < 500 nM
COc1ccc(-c2nn3ccc(C(=O)N(CCC(C)C)CCC(C)C)cc3c2CCCN2CCCCC2)cc1OC = < 500 nM
CCCCN(CCCC)C(=O)c1ccn2nc(-c3ccc(OC)cc3)c(CCCN3CCCCC3)c2c1 = 1000 to 5000 nM
CC(=O)c1ccc(-c2nn3ccc(C(=O)N(CCC(C)C)CCC(C)C)cc3c2/C=C/CN2CCOCC2)cc1 = 1000 to 5000 nM

Ask: # get_value(readout='IC50', item= CCCCCN(CCCCC)C(=O)c1ccn2nc(-c3ccccc3)c(CCCN3CCCCC3)c2c1 )
Reply: 500 to 1000 nM

Ask: # get_value(readout='IC50', item= COc1ccc(-c2nn3ccc(C(=O)N(CCC(C)C)CCC(C)C)cc3c2/C=C/CN2CCCC2)cc1 )
Reply: 1000 to 5000 nM

Ask: # get_value(readout='IC50', item= COc1ccc(NC(=O)c2nn3ccc(C(=O)N(CCC(C)C)CCC(C)C)cc3c2/C=C/CN2CCCCC2)cc1 )
Reply: 1000 to 5000 nM
